test system: SARS-CoV-2-NLuc in A549-hACE2 cells; assay: microbe, parasite or virus in culture; type: cell-based, SARS Coronavirus 2; details: read-out: MPro EC50
pEC50: −log10 of the molar value.
// reported pEC50 per item
QUANTITY: pEC50

[
  {
    "MOLECULE": "COc1cc(-c2cc3c(o2)c(=O)n(-c2cncc4cnn(C)c24)c(=O)n3CCC#N)c(Cl)cc1F (single isomer, unassigned) [Example 64]",
    "RESULT VALUE": 6.95
  },
  {
    "MOLECULE": "COc1cc(-c2cc3c(o2)c(=O)n(-c2cncc4cccnc24)c(=O)n3CCC#N)c(Cl)cc1F (single isomer, unassigned) [Example 65]",
    "RESULT VALUE": 8.24
  },
  {
    "MOLECULE": "COc1cc(-c2cc3c(o2)c(=O)n(-c2cncc4ccccc24)c(=O)n3CCC#N)c(Cl)cc1F (single isomer, unassigned) [Example 60]",
    "RESULT VALUE": 7.08
  }
]
